B1: library; a variant is named by its letters at N, in order (parent)
chain: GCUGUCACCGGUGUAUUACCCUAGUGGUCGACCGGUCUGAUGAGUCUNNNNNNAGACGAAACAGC

Variants of: B1
assay summary: normalized RNA/DNA level without ligand (relative to sTRSVctl = 100) (log10 (% of sTRSVctl)); ligand: hypoxanthine (xanthine aptamer); higher = less ribozyme self-cleavage, higher mRNA level
condition details: HEK293T, reporter: mCherry (pCS4076), ligand present: no
endpoint: normalized RNA/DNA level without ligand (log10)
Answer with the value's number alone.

The cases that follow already have their normalized RNA/DNA level without ligand (log10) on record.
For reference, reported normalized RNA/DNA level without ligand (log10) for GCUGUCACCGGUGUAUUACCCUAGUGGUCGACCGGUCUGAUGAGUCUGCGGGAAGACGAAACAGC [GCGGGA] stands at 1.72

For reference, reported normalized RNA/DNA level without ligand (log10) for GCUGUCACCGGUGUAUUACCCUAGUGGUCGACCGGUCUGAUGAGUCUGCUGUCAGACGAAACAGC [GCUGUC] stands at 1.84

For reference, reported normalized RNA/DNA level without ligand (log10) for GCUGUCACCGGUGUAUUACCCUAGUGGUCGACCGGUCUGAUGAGUCUAUACCGAGACGAAACAGC [AUACCG] stands at 1.47

---
For reference, reported normalized RNA/DNA level without ligand (log10) for GCUGUCACCGGUGUAUUACCCUAGUGGUCGACCGGUCUGAUGAGUCUGCUUGGAGACGAAACAGC [GCUUGG] stands at 1.37

For reference, reported normalized RNA/DNA level without ligand (log10) for GCUGUCACCGGUGUAUUACCCUAGUGGUCGACCGGUCUGAUGAGUCUACUUGCAGACGAAACAGC [ACUUGC] stands at 1.82

For reference, reported normalized RNA/DNA level without ligand (log10) for GCUGUCACCGGUGUAUUACCCUAGUGGUCGACCGGUCUGAUGAGUCUUACGUCAGACGAAACAGC [UACGUC] stands at 1.94

For reference, reported normalized RNA/DNA level without ligand (log10) for GCUGUCACCGGUGUAUUACCCUAGUGGUCGACCGGUCUGAUGAGUCUACAAGCAGACGAAACAGC [ACAAGC] stands at 1.76

For reference, reported normalized RNA/DNA level without ligand (log10) for GCUGUCACCGGUGUAUUACCCUAGUGGUCGACCGGUCUGAUGAGUCUAUCCACAGACGAAACAGC [AUCCAC] stands at 1.81

For reference, reported normalized RNA/DNA level without ligand (log10) for GCUGUCACCGGUGUAUUACCCUAGUGGUCGACCGGUCUGAUGAGUCUGGACCGAGACGAAACAGC [GGACCG] stands at 1.79

For reference, reported normalized RNA/DNA level without ligand (log10) for GCUGUCACCGGUGUAUUACCCUAGUGGUCGACCGGUCUGAUGAGUCUGUCACAAGACGAAACAGC [GUCACA] stands at 1.81

For reference, reported normalized RNA/DNA level without ligand (log10) for GCUGUCACCGGUGUAUUACCCUAGUGGUCGACCGGUCUGAUGAGUCUGCUGUUAGACGAAACAGC [GCUGUU] stands at 1.98

For reference, reported normalized RNA/DNA level without ligand (log10) for GCUGUCACCGGUGUAUUACCCUAGUGGUCGACCGGUCUGAUGAGUCUCGUAGGAGACGAAACAGC [CGUAGG] stands at 1.33

For reference, reported normalized RNA/DNA level without ligand (log10) for GCUGUCACCGGUGUAUUACCCUAGUGGUCGACCGGUCUGAUGAGUCUAUUCACAGACGAAACAGC [AUUCAC] stands at 1.89

For reference, reported normalized RNA/DNA level without ligand (log10) for GCUGUCACCGGUGUAUUACCCUAGUGGUCGACCGGUCUGAUGAGUCUGAGGAAAGACGAAACAGC [GAGGAA] stands at 1.54

For reference, reported normalized RNA/DNA level without ligand (log10) for GCUGUCACCGGUGUAUUACCCUAGUGGUCGACCGGUCUGAUGAGUCUGGCAGCAGACGAAACAGC [GGCAGC] stands at 1.6

For reference, reported normalized RNA/DNA level without ligand (log10) for GCUGUCACCGGUGUAUUACCCUAGUGGUCGACCGGUCUGAUGAGUCUAGCCGCAGACGAAACAGC [AGCCGC] stands at 1.84

For reference, reported normalized RNA/DNA level without ligand (log10) for GCUGUCACCGGUGUAUUACCCUAGUGGUCGACCGGUCUGAUGAGUCUCUACGGAGACGAAACAGC [CUACGG] stands at 1.98

For reference, reported normalized RNA/DNA level without ligand (log10) for GCUGUCACCGGUGUAUUACCCUAGUGGUCGACCGGUCUGAUGAGUCUCGUACCAGACGAAACAGC [CGUACC] stands at 1.89

For reference, reported normalized RNA/DNA level without ligand (log10) for GCUGUCACCGGUGUAUUACCCUAGUGGUCGACCGGUCUGAUGAGUCUGAGUCUAGACGAAACAGC [GAGUCU] stands at 1.84

For reference, reported normalized RNA/DNA level without ligand (log10) for GCUGUCACCGGUGUAUUACCCUAGUGGUCGACCGGUCUGAUGAGUCUGUUUAAAGACGAAACAGC [GUUUAA] stands at 1.83
